# experimental.system: human 11β-HSD1 (Homo sapiens)
# Sequence (P28845 whole entry): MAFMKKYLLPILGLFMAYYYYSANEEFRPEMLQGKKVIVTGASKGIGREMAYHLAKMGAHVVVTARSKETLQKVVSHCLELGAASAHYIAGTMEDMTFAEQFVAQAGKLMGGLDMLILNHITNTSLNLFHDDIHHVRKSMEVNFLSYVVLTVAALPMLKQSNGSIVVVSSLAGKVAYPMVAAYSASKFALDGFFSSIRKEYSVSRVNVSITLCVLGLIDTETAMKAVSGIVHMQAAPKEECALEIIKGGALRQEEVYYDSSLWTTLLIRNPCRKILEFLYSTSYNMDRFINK
# test.summary: biochemical
# condition.parameters: read-out: Average % inhibition at 100 nM

[
  {
    "compound": "C[C@@H](c1ccc(-c2ccc(F)cc2F)cc1)N1CCC(c2ccccc2)CC1=O (mixture of isomers)",
    "inhibition at 0.1 µM / %": 94.5
  },
  {
    "compound": "C[C@@H](c1ccc(Br)cc1)N1CCCC(c2ccccc2)NC1=O (stereo partly shown)",
    "inhibition at 0.1 µM / %": 100
  },
  {
    "compound": "C[C@@H](c1ccc(Br)cc1)N1CCC(c2ccc(F)cc2)OC1=O (mixture of isomers)",
    "inhibition at 0.1 µM / %": 90.1
  },
  {
    "compound": "COc1ccc([C@H](C)N2CCC(c3ccc(F)cc3)CC2=O)cc1 (stereo partly shown)",
    "inhibition at 0.1 µM / %": 89.4
  }
]

Where do these numbers come from? They come from patent US8598160B2.
